src = patent US8551984B2

experimental-system: recombinant human SYK (GST-hSYK fusion protein) (Homo sapiens, UniProt P43405)
experimental-parameters: read-out: rhSYK Activity; Table 74A
pIC50: −log10 of the molar value.
property-label: pIC50

Given CC(C)(c1ncc(-c2cc(F)cc(Nc3nccc(C(F)(F)F)n3)c2)s1)S(N)(=O)=O [74A-10] , state its recorded pIC50.
6.00 to 7.00

====

experimental-system: recombinant human SYK (GST-hSYK fusion protein) (Homo sapiens, UniProt P43405)
experimental-parameters: read-out: rhSYK Activity; Table 54E
property-label: IC50

Param readout= IC50; system= recombinant human SYK (GST-hSYK fusion protein) (Homo sapiens, UniProt P43405); entry= Cc1cc(Nc2nccc(C(F)(F)F)n2)cc(-c2cnc(C3(O)CCC(NC(=O)CC4CCCO4)CC3)s2)c1 (stereo not shown) [Example 54E-19] ; returns value.
< 100 nM

====

experimental-system: recombinant human SYK (GST-hSYK fusion protein) (Homo sapiens)
assay-info: biochemical
experimental-parameters: rhSYK Activity, Table 64, first part
pIC50: −log10 of the molar value.
What pIC50 was measured for each of the following?

Given Cc1cc(Nc2nccc(C(F)(F)F)n2)cc(-c2cnc(C3(NC(N)=O)CCNC(=O)CC3)s2)c1 (stereo not shown) [Example 64-9] , state its recorded pIC50.
> 7.00

Given NC(=O)NC1(c2ncc(-c3cc(F)cc(Nc4ncc(F)c(C5CC5)n4)c3)s2)CCC1 [Example 64-7] , state its recorded pIC50.
> 7.00

Given Cc1cc(Nc2nccc(C3CC3)n2)cc(-c2cnc(C3(NC(N)=O)CCC3)s2)c1 [Example 64-2] , state its recorded pIC50.
> 7.00

Given Cc1cc(Nc2ncccn2)cc(-c2cnc(C3(NC(N)=O)CCC3)s2)c1 [Example 64-3] , state its recorded pIC50.
> 7.00

Given Cc1cc(Nc2ncc(F)c(C3CC3)n2)cc(-c2cnc(C3(NC(N)=O)CCC3)s2)c1 [Example 64-6] , state its recorded pIC50.
> 7.00

Given Cc1cc(Nc2nccc(C(F)(F)F)n2)cc(-c2cnc(C3(NC(N)=O)COC3)s2)c1 [Example 64-1] , state its recorded pIC50.
> 7.00

Given COc1nc(Nc2cc(C)cc(-c3cnc(C4(NC(N)=O)CCC4)s3)c2)ncc1Cl [Example 64-8] , state its recorded pIC50.
> 7.00

====

experimental-system: rhSYK (Homo sapiens)
experimental-parameters: read-out: rhSYK Activity; class symbol; where two forms are listed, one symbol per form
What IC50 was measured for each of the following?

Param readout= IC50; system= rhSYK (Homo sapiens); entry= Cc1cc(Nc2ncc(F)c(C)n2)cc(-c2cnc(C(C)(O)CO)s2)c1 (stereo not shown) [Ex 5-8] ; returns value.
< 100 nM

Param readout= IC50; system= rhSYK (Homo sapiens); entry= Cc1cc(Nc2nccc(C(F)(F)F)n2)cc(-c2cnc(C3(O)CCC(NC(=O)C4CCC(=O)O4)CC3)s2)c1 (stereo not shown) [Example 4C-31] ; returns value.
< 100 nM

Param readout= IC50; system= rhSYK (Homo sapiens); entry= CC(C)(C)C(C)(O)c1ncc(-c2cccc(Nc3nccc(C(F)(F)F)n3)c2)s1 (stereo not shown) [Example 4A-6] ; returns value.
100 to 1000 nM

Param readout= IC50; system= rhSYK (Homo sapiens); entry= Cc1cc(Nc2nccc(C(F)(F)F)n2)cc(-c2cnc(C(C)(O)CCCN)s2)c1 (stereo not shown) [Example 4A-46] ; returns value.
< 100 nM

====

experimental-system: recombinant human SYK (GST-hSYK fusion protein) (Homo sapiens, UniProt P43405)
assay-info: biochemical
experimental-parameters: rhSYK Activity (IC50), recombinant human GST-SYK 5 pM, ATP 25 μM, biotinylated substrate peptide 250 nM, HTRF, 10-dose titration
property-label: IC50

Given CC1(C)C[C@@](O)(c2ncc(-c3cc(CNC(N)=O)cc(Nc4nccc(C(F)(F)F)n4)c3)s2)CC[C@@H]1C(=O)O [Example 124] , state its recorded IC50.
< 100 nM

Given Cc1cc(Nc2nccc(O[C@@H]3CCOC3)n2)cc(-c2cnc(C3(O)CCC3)s2)c1 [Example 94A-8] , state its recorded IC50.
< 100 nM

Given Cc1cc(Nc2nccc(C(F)(F)F)n2)cc(-c2cnc(C(=O)NCCC(=O)O)s2)c1 [Example 87A-35] , state its recorded IC50.
< 100 nM

Given Cc1cc(Nc2nccc(C(F)(F)F)n2)cc(-c2cnc(C(=O)NCCc3c[nH]cn3)s2)c1 [Example 87A-15] , state its recorded IC50.
< 100 nM

Given CNC(=O)NCc1ncc(-c2cc(C)cc(Nc3nccc(C(F)(F)F)n3)c2)s1 [Example 88A-61] , state its recorded IC50.
< 100 nM

Given Cc1cc(Nc2nccc(C(F)(F)F)n2)cc(-c2cnc(C3(O)CCNC(=O)CC3)s2)c1Br (single isomer, unassigned) [Example 111-1] , state its recorded IC50.
100 to 1000 nM

Given Cc1cc(Nc2nccc(C(F)(F)F)n2)cc(-c2cnc(C3CCSCC3)s2)c1 [Example 136] , state its recorded IC50.
< 100 nM

Given Cc1cc(Nc2nccc(OCc3ccncc3)n2)cc(-c2cnc(C3(O)CCC3)s2)c1 [Example 94A-1] , state its recorded IC50.
< 100 nM

Given Cc1cc(Nc2nccc(C(F)(F)F)n2)cc(-c2cnc(C(=O)N3CC(O)CC3C(=O)O)s2)c1 (stereo not drawn) [Example 87B-20] , state its recorded IC50.
< 100 nM

Given Cc1cc(Nc2nccc(C(F)(F)F)n2)cc(-c2cnc(-c3ccc[nH]3)s2)c1 [Example 114-8] , state its recorded IC50.
< 100 nM

Given Cc1cc(Nc2nccc(C(F)(F)F)n2)cc(-c2cnc(C3(OCCO)CCNC(=O)CC3)s2)c1 (stereo not drawn) [Example 127] , state its recorded IC50.
< 100 nM

Given Cc1cc(Nc2nccc(C(F)(F)F)n2)cc(-c2cnc(CC(C)(C)C(=O)N(C)C)s2)c1 [Example 79-11] , state its recorded IC50.
< 100 nM

Given Cc1cc(Nc2nccc(OC3CCCNC3)n2)cc(-c2cnc(C3(O)CCC3)s2)c1 (stereo not drawn) [Example 94A-26] , state its recorded IC50.
< 100 nM

Given Cc1cc(Nc2nccc(C(F)(F)F)n2)cc(-c2cnc(C(=O)N3CCn4ccnc4C3)s2)c1 [Example 87B-9] , state its recorded IC50.
< 100 nM

Given Cc1cc(Nc2nccc(C(F)(F)F)n2)cc(-c2cnc(C3(O)CCC/C(=N\O)C3(C)C)s2)c1 (stereo not drawn) [Example 156] , state its recorded IC50.
< 100 nM

Given CC(=O)c1ccnc(Nc2cc(C)cc(-c3cnc(C(C)(O)C(F)(F)F)s3)c2)n1 (stereo not drawn) [Example 106] , state its recorded IC50.
< 100 nM

Given Cc1cc(Nc2nccc(C(F)(F)F)n2)cc(-c2cnc(C(=O)N(C)CC3COCCO3)s2)c1 (stereo not drawn) [Example 87A-23] , state its recorded IC50.
100 to 1000 nM

Given CC(O)c1ncc(-c2cccc(Nc3nccc(OC4CCNCC4)n3)c2)s1 (stereo not drawn) [Example 94B-10] , state its recorded IC50.
< 100 nM

Given Cc1cc(Nc2nccc(OC3CCC(O)CC3)n2)cc(-c2cnc(C(C)(O)C(F)(F)F)s2)c1 (mixture of isomers) [Example 96] , state its recorded IC50.
< 100 nM

Given Cc1cc(Nc2nccc(C(F)(F)F)n2)cc(-c2cnc(CN3CCCC3=O)s2)c1 [Example 92-2] , state its recorded IC50.
< 100 nM

Given Cc1cc(Nc2nccc(OC(C)C)n2)cc(-c2cnc([C@@]3(O)CC[C@H](C(N)=O)C(C)(C)C3)s2)c1 [Example 119] , state its recorded IC50.
< 100 nM

Given Cc1cc(Nc2nccc(OC3CCCCC3)n2)cc(-c2cnc(C3(O)CCC3)s2)c1 [Example 94A-32] , state its recorded IC50.
100 to 1000 nM

Given COC(=O)[C@@H]1CC[C@@](O)(c2ncc(-c3cc(C)cc(Nc4nccc(C(F)(F)F)n4)c3)s2)CC1(C)C [Example 121] , state its recorded IC50.
< 100 nM

Given Cc1cc(Nc2nccc(C(F)(F)F)n2)cc(-c2cnc(C(=O)N3CCN(C)CC3)s2)c1 [Example 87B-3] , state its recorded IC50.
100 to 1000 nM

Given Cc1cc(Nc2nccc(OC3CCNCC3)n2)cc(-c2cnc(C(C)(O)C(F)(F)F)s2)c1 (stereo not drawn) [Example 94B-6] , state its recorded IC50.
< 100 nM

Given Cc1cc(Nc2nccc(C(F)(F)F)n2)cc(-c2cnc(CN3CCN(S(C)(=O)=O)CC3)s2)c1 [Example 88B-9] , state its recorded IC50.
< 100 nM

Given Cc1cc(Nc2nccc(C(F)(F)F)n2)cc(-c2cnc(CNC3(C(=O)O)CC3)s2)c1 [Example 88A-21] , state its recorded IC50.
< 100 nM

Given Cc1cc(Nc2nccc(C(F)(F)F)n2)cc(-c2cnc(C(=O)N3CCS(=O)(=O)CC3)s2)c1 [Example 87B-14] , state its recorded IC50.
100 to 1000 nM

Given Cc1cc(Nc2nccc(C(F)(F)F)n2)cc(-c2cnc(CCc3nnco3)s2)c1 [Example 79-7] , state its recorded IC50.
< 100 nM

Given COCCOc1ccnc(Nc2cc(C)cc(-c3cnc(C4(O)CCC4)s3)c2)n1 [Example 94A-14] , state its recorded IC50.
< 100 nM
